Recorded measurements of inhibition, one per entry
Tested on: Platelet-derived growth factor receptor alpha (Homo sapiens), P16234 [V561D]
Sequence (P16234 whole entry V561D): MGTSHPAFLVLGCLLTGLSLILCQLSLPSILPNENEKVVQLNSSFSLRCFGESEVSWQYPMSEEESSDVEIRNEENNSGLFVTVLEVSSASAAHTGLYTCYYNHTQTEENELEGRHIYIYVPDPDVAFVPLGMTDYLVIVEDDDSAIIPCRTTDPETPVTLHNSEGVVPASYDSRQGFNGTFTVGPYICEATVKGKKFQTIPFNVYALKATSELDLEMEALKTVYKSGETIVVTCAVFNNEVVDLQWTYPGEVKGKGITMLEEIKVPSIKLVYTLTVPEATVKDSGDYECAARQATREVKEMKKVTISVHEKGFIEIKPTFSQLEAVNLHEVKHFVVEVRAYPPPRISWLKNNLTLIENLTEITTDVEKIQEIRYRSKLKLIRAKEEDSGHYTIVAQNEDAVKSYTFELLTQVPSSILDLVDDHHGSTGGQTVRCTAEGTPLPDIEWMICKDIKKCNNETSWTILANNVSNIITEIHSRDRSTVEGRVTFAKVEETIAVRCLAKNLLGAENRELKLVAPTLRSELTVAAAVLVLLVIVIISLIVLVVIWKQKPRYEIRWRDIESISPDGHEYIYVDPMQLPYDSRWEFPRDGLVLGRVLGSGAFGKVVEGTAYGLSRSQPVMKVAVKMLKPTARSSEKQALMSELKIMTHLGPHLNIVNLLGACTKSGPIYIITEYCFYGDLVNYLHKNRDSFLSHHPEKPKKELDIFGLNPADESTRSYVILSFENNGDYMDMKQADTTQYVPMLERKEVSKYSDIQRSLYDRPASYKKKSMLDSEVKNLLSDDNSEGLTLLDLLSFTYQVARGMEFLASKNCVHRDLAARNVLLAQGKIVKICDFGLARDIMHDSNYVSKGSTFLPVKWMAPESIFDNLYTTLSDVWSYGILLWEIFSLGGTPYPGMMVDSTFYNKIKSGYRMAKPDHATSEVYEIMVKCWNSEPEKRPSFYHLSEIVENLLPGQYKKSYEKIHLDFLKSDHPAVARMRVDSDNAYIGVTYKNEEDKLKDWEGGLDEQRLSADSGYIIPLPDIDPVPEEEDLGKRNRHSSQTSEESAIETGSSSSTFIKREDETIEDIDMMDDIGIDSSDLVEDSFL
Conditions: at 1 µM
Answer format: numeric, % implied, no suffix.

1) c1cnn2ncc(-c3ccnc(Nc4ccc5c(c4)OCCO5)n3)c2c1    61.7
2) CC1=C(C(=O)Nc2ccc3[nH]ncc3c2)C(c2ccc3ccccc3c2)CC(=O)N1 (stereo not given)    7.45

**Query** Record lookup: for Platelet-derived growth factor receptor alpha (Homo sapiens), P16234 [V561D], what inhibition belongs to `COc1cc(C)c(NC(=O)CN(C)C)cc1Nc1nc(Nc2cccc(F)c2C(N)=O)c2cc[nH]c2n1` ?
**Result** 10.8

**Query** Record `CC(=O)Nc1cccc(C#Cc2cncnc2Nc2ccc(OCc3cccc(F)c3)c(Cl)c2)n1` : what is its inhibition with Platelet-derived growth factor receptor alpha (Homo sapiens), P16234 [V561D]?
**Result** 1.4

**Query** Field: inhibition (Platelet-derived growth factor receptor alpha (Homo sapiens), P16234 [V561D]). Entry: `CS(=O)(=O)CCN(CC#N)Cc1ccc(-c2ccc3ncnc(Nc4ccc(OCc5cccc(F)c5)c(Cl)c4)c3c2)o1`
**Result** 4.06

**Query** Tell me reported inhibition for `Nc1nc(-c2ccccn2)c(-c2ccc3ncccc3n2)s1` , tested with Platelet-derived growth factor receptor alpha (Homo sapiens), P16234 [V561D].
**Result** -1.5

**Query** Platelet-derived growth factor receptor alpha (Homo sapiens), P16234 [V561D] / inhibition / `Cc1nn(C)c2cc(N(C)c3ccnc(Nc4cccc(S(N)(=O)=O)c4)n3)ccc12` : value?
**Result** 70.1

**Query** Which inhibition is reported with Platelet-derived growth factor receptor alpha (Homo sapiens), P16234 [V561D] for this entry: CC1=C(C(=O)Nc2ccc3[nH]ncc3c2)C(c2ccc(Cl)c(Cl)c2)CC(=O)N1 (stereo not given) ?
**Result** 2.1

**Query** Platelet-derived growth factor receptor alpha (Homo sapiens), P16234 [V561D] / inhibition / `COc1cc2ncn(-c3cc(O[C@@H](C)c4ccccc4Cl)c(C(N)=O)s3)c2cc1OC` : value?
**Result** 81.5

**Query** What inhibition appears in the records for this molecule with Platelet-derived growth factor receptor alpha (Homo sapiens), P16234 [V561D]? `O=C1NC(=O)C(c2cccc(Cl)c2)=C1Nc1ccc(O)c(Cl)c1`
**Result** 9.34
